MEASURED ATTRIBUTE: melting point

Worked set:
COMPOUND: C[C@H](CSC1c2ccccc2CCc2ccc(/C=C/c3ccc4cc(F)c(F)cc4n3)cc21)C(=O)[O-].[Na+] (some centres unmarked)
melting point: 211 to 220 °C

COMPOUND: CC(C)(CC(=O)[O-])SC1c2ccccc2COc2ccc(/C=C/c3ccc4c(n3)CCCC4)cc21.[Na+] (centres unmarked)
melting point: 168 to 175 °C

COMPOUND: O=C([O-])CCSC1c2ccccc2CSc2ccc(/C=C/c3ccc4cc(F)c(F)cc4n3)cc21.[Na+] (centres unmarked)
melting point: 144 to 148 °C

COMPOUND: O=S(=O)([O-])CCSC1c2ccccc2COc2ccc(/C=C/c3ccc4cc(F)c(F)cc4n3)cc21.[Na+] (centres unmarked)
melting point: 246 to 254 °C

COMPOUND: O=C([O-])CC1(CSC2c3ccccc3COc3ccc(/C=C/c4ccc5c(n4)CCCC5)cc32)CC1.[Na+] (centres unmarked)
melting point: 142 to 145 °C

Briefly, melting point measured for CS(=O)(=O)NC(=O)CCSC1c2ccccc2COc2ccc(/C=C/c3ccc4cc(F)c(F)cc4n3)cc21.[Na] (centres unmarked) : 187 to 192 °C

Briefly, melting point measured for C[C@@H](CSC1c2ccccc2COc2ccc(/C=C/c3ccc4c(n3)CCCC4)cc21)C(=O)[O-].[Na+] (some centres unmarked) : 168 to 173 °C

Briefly, melting point measured for COC(=O)c1ccc2c(c1)COc1ccc(/C=C/c3ccc4c(n3)CCCC4)cc1C2SCCC(=O)O (centres unmarked) : 121 to 123 °C

###

Each record here notes measured Ki.
- SUBJECT OF TEST: Leukotriene D4 receptor (Cavia porcellus, UniProt Q2NNR5)
- Construct: As a receptor sample, a lung cell membrane fraction from guinea pigs was used; from tissue; host or cells: lung membrane fraction of Hartley male guinea pigs
- Sequence (Q2NNR5 whole entry): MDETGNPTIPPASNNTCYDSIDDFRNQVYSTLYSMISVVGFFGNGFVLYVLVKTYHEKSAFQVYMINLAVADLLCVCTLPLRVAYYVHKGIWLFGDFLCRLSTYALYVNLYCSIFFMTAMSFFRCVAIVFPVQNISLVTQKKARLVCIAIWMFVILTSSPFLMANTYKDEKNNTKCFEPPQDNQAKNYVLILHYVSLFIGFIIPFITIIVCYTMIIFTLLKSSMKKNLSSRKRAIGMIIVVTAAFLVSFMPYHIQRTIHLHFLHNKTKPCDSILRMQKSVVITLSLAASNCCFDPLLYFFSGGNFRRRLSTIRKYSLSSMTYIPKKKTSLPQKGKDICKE
- PROTOCOL SUMMARY: Leukotriene D4 receptor binding test
- EXPERIMENTAL CONDITIONS: binding inhibition constant (Ki) vs [3H] LTD4 0.2 nM; lung cell membrane fraction from guinea pigs; 25° C. for 30 minutes; read-out: pKi value (converted)
// return numeric value only (unit: nM, not printed)

COMPOUND: O=C([O-])CC1(CSC2c3ccccc3COc3ccc(/C=C/c4ccc5cc(F)c(F)cc5n4)cc32)CC1.[Na+] (stereo not shown)
VAL: 0.2

COMPOUND: O=C([O-])CCCC1c2ccccc2COc2ccc(/C=C/c3ccc4cc(F)c(F)cc4n3)cc21.[Na+] (stereo not shown)
VAL: 0.158

COMPOUND: O=C(O)CCSC1c2cc(/C=C/c3ccc4cc(F)c(F)cc4n3)ccc2OCc2c(F)cccc21 (stereo not shown)
VAL: 0.158

Briefly, Ki measured for C[C@@H](CSC1c2ccccc2COc2ccc(/C=C/c3ccc4cc(F)c(F)cc4n3)cc21)C(=O)[O-].[Na+] (stereo partly shown) : 0.2
